- targetUnderTest: mouse HER2 (23-653) (Mus musculus, UniProt P70424)
- methodNotes: TR-FRET competition assay for peptide potency, mouse HER2
- Assay type: binding
- Parameters: mouse HER2 (23-653) using a Cy5 labeled peptide as a probe; made in house; host or cells: mammalian cells
- experimentalParameters: TR-FRET competition with Cy5 labeled peptide probe, 0.1 nM mouse HER2, 24 h incubation; read-out: moHER2 TR-FRET IC50
Structures can show the parent of a compound that is named as a salt. Starred links: 1 amine or outer side, 2 acyl side, 3 side chain; linkers in the order of their positions; H or OH if unused. Positions of bridges follow the written chain, without caps; N, C: chain ends. Non-standard residues stand in square brackets, D forms with d. Residues, ends and D or L forms follow the SMILES beside them. Trp(5-OH) = N[C@@H](Cc1c[nH]c2ccc(O)cc12)C(=O)O; X9 = CN([C@@H](CCc1cccc(Cl)c1)C(=O)[*:2])[*:1]; NMePhe(4-F) = CN[C@@H](Cc1ccc(F)cc1)C(=O)O; NMehPhe = CN[C@@H](CCc1ccccc1)C(=O)O; Aad = N[C@@H](CCCC(=O)O)C(=O)O; Gly(cPr) = N[C@H](C(=O)O)C1CC1; NMeK = CN[C@@H](CCCCN)C(=O)O; NMeDap = CN[C@@H](CN)C(=O)O
Binary call on IC50 with cut-off 10 nM: strictly below means T, and equality or higher means F.

Exam item: Say whether its IC50 is strictly beneath 10 nM. Entry: CC(=O)NCCCC[C@H]1C(=O)N[C@@H](Cc2c[nH]c3ccc(O)cc23)C(=O)N[C@@H](Cc2c[nH]c3ccccc23)C(=O)N[C@@H]([C@H](C)O)C(=O)N(C)[C@H](C(=O)N(C)[C@@H](Cc2ccc(F)cc2)C(=O)N[C@@H](CCCCNC(=O)N2CCN(CC(=O)O)CC2)C(N)=O)CNC(=O)CC[C@H](NC(=O)CCNC(=O)CN2CCN(CC(=O)O)CCN(CC(=O)O)CCN(CC(=O)O)CC2)C(=O)N[C@@H](Cc2ccc(O)cc2)C(=O)N[C@@H](CO)C(=O)N(C)[C@@H](CCc2ccccc2)C(=O)N1C
Marked response: T

Exam item: Record CC(=O)N[C@H]1CCC(=O)NCC[C@@H](C(=O)N(C)[C@@H](Cc2ccc(F)cc2)C(N)=O)N(C)C(=O)[C@H](C2CC2)NC(=O)[C@H](Cc2c[nH]c3ccccc23)NC(=O)[C@H](Cc2c[nH]c3ccc(O)cc23)NC(=O)[C@H](CO)N(C)C(=O)[C@H](CCc2ccccc2)N(C)C(=O)[C@H](CO)NC(=O)[C@H](Cc2ccc(O)cc2)NC1=O : is its IC50 strictly below 10 nM?
Marked response: F

Exam item: Given CC(=O)NCCCC[C@H]1C(=O)N[C@@H](Cc2c[nH]c3ccc(O)cc23)C(=O)N[C@@H](Cc2c[nH]c3ccccc23)C(=O)N[C@@H](C2CC2)C(=O)N(C)[C@H](C(=O)N(C)[C@@H](Cc2ccc(F)cc2)C(=O)N[C@@H](CCCCNC(=O)CN2CCN(CC(=O)O)CCN(CC(=O)O)CCN(CC(=O)O)CC2)C(N)=O)CNC(=O)CCC[C@H](NC(C)=O)C(=O)N[C@H](Cc2ccc(O)cc2)C(=O)N[C@H](CO)C(=O)N(C)[C@@H](CCc2ccccc2)C(=O)N1C [Example C3] , is recorded IC50 strictly lower than 10 nM?
Marked response: F

Exam item: Please let me know if CC(=O)NCCCC[C@H]1C(=O)N[C@@H](Cc2c[nH]c3ccc(O)cc23)C(=O)N[C@@H](Cc2c[nH]c3ccccc23)C(=O)N[C@@H](C2CC2)C(=O)N(C)[C@H](C(=O)N(C)[C@@H](Cc2ccc(F)cc2)C(N)=O)CNC(=O)CCC[C@H](NC(C)=O)C(=O)N[C@@H](Cc2ccc(O)cc2)C(=O)N[C@@H](CO)C(=O)N(C)[C@@H](CCc2cccc(Cl)c2)C(=O)N1C [Example A8] (Ac-[Aad]YS[X9][NMeK](Ac)[Trp(5-OH)]W[Gly(cPr)][NMeDap][NMePhe(4-F)]-NH2; lactam 1-9) shows IC50 below 10 nM.
Marked response: T

Exam item: Take the compound CC(=O)NCCCC[C@H]1C(=O)N[C@@H](Cc2c[nH]c3ccc(O)cc23)C(=O)N[C@@H](C)C(=O)N[C@@H](C2CC2)C(=O)N(C)[C@H](C(=O)N(C)[C@@H](Cc2ccc(F)cc2)C(=O)N[C@@H](CCCCN)C(N)=O)CNC(=O)CCC[C@H](NC(C)=O)C(=O)N[C@@H](Cc2ccc(O)cc2)C(=O)N[C@@H](CO)C(=O)N(C)[C@@H](CCc2ccccc2)C(=O)N1C [Example A45, TFA salt] (Ac-[Aad]YS[NMehPhe][NMeK](Ac)[Trp(5-OH)]A[Gly(cPr)][NMeDap][NMePhe(4-F)]K-NH2; lactam 1-9) and say whether its IC50 is less than 10 nM.
Marked response: F

Exam item: Please check: IC50 for CC(=O)NCCCC[C@H]1C(=O)N[C@@H](Cc2c[nH]c3ccc(O)cc23)C(=O)N[C@@H](Cc2c[nH]c3ccccc23)C(=O)N[C@@H](C2CC2)C(=O)N(C)[C@H](C(=O)N(C)[C@@H](Cc2ccc(F)cc2)C(=O)N[C@@H](CCCCN)C(N)=O)CNC(=O)CCC[C@H](NC(C)=O)C(=O)N[C@@H](Cc2ccc(O)cc2)C(=O)N[C@@H](CO)C(=O)N(C)[C@@H](CCc2ccccc2)C(=O)N1C [Example A40, TFA salt] , strictly under 10 nM or not?
Marked response: T

Exam item: IC50 under 10 nM? Item: CC(=O)NCCCC[C@H]1C(=O)N[C@@H](Cc2c[nH]c3ccc(O)cc23)C(=O)N[C@@H](Cc2c[nH]c3ccccc23)C(=O)N[C@@H](C2CC2)C(=O)N(C)[C@H](C(=O)N(C)[C@@H](Cc2ccc(F)cc2)C(=O)N[C@@H](CCCCN)C(N)=O)CNC(=O)CCC[C@H](NC(C)=O)C(=O)N[C@H](Cc2ccc(O)cc2)C(=O)N[C@H](CO)C(=O)N(C)[C@@H](CCc2ccccc2)C(=O)N1C [Example A48, TFA salt]
Marked response: F

Exam item: Below 10 nM on IC50? Entry CC(=O)N[C@H]1CCCC(=O)NC[C@@H](C(=O)N(C)[C@@H](Cc2ccc(F)cc2)C(=O)N[C@@H](CCCCNC(=O)CN2CCN(CC(=O)O)CCN(CC(=O)O)CCN(CC(=O)O)CC2)C(N)=O)N(C)C(=O)[C@H](C2CC2)NC(=O)[C@H](Cc2c[nH]c3ccccc23)NC(=O)[C@H](Cc2c[nH]c3ccc(O)cc23)NC(=O)[C@H](CCCCNC(=O)CO)N(C)C(=O)[C@H](CCc2ccccc2)N(C)C(=O)[C@H](CO)NC(=O)[C@H](Cc2ccc(O)cc2)NC1=O [Example B5]
Marked response: T

* * *

I'd appreciate it if you could supply pIC50 values for the items below.
- targetUnderTest: human HER2 (23-652) (Homo sapiens, UniProt P04626)
- methodNotes: TR-FRET competition assay for peptide potency, human HER2
- Assay type: binding
- Set-up: towards human HER2 (23-652) and mouse HER2 (23-653); made in house; host or cells: mammalian cells
- experimentalParameters: value in parentheses (**): recalculated after further repetition; read-out: huHER2 TR-FRET IC50, recalculated value achieved after further repetition
Scale: pIC50 equals -log10([C]), with [C] in mol/L.

Exam item: Look up pIC50 of CC(=O)NCCCC[C@H]1C(=O)N[C@@H](Cc2c[nH]c3ccc(O)cc23)C(=O)N[C@@H](Cc2c[nH]c3ccccc23)C(=O)N[C@@H]([C@H](C)O)C(=O)N(C)[C@H](C(=O)N(C)[C@@H](Cc2ccc(F)cc2)C(=O)N[C@@H](CCCCNC(=O)N2CCN(CC(=O)O)CC2)C(N)=O)CNC(=O)CC[C@H](NC(=O)CCNC(=O)CN2CCN(CC(=O)O)CCN(CC(=O)O)CCN(CC(=O)O)CC2)C(=O)N[C@@H](Cc2ccc(O)cc2)C(=O)N[C@@H](CO)C(=O)N(C)[C@@H](CCc2ccccc2)C(=O)N1C and report it.
Marked response: 8.89

Exam item: Please give the documented pIC50 of CC(=O)NCCCC[C@H]1C(=O)N[C@@H](Cc2c[nH]c3ccc(O)cc23)C(=O)N[C@@H](Cc2c[nH]c3ccccc23)C(=O)N[C@@H]([C@H](C)O)C(=O)N(C)[C@H](C(=O)N(C)[C@@H](Cc2ccc(F)cc2)C(=O)N[C@@H](CCCCNC(=O)CN2CCN(CC(=O)O)CCN(CC(=O)O)CCN(CC(=O)O)CC2)C(N)=O)CNC(=O)CC[C@H](NC(C)=O)C(=O)N[C@@H](Cc2ccc(O)cc2)C(=O)N[C@@H](CO)C(=O)N(C)[C@@H](CCc2ccccc2)C(=O)N1C
Marked response: 9.05

Exam item: Supply measured pIC50 of CC(=O)NCCCC[C@H]1C(=O)N[C@@H](Cc2c[nH]c3ccc(O)cc23)C(=O)N[C@@H](Cc2c[nH]c3ccccc23)C(=O)N[C@@H]([C@H](C)O)C(=O)N(C)[C@H](C(=O)N(C)[C@@H](Cc2ccc(F)cc2)C(=O)N[C@@H](CCCCNC(=O)N2CCN(CC(=O)O)CC2)C(=O)N[C@@H](CCCCNC(=O)CN2CCN(CC(=O)O)CCN(CC(=O)O)CCN(CC(=O)O)CC2)C(N)=O)CNC(=O)CC[C@H](NC(C)=O)C(=O)N[C@@H](Cc2ccc(O)cc2)C(=O)N[C@@H](CO)C(=O)N(C)[C@@H](CCc2ccccc2)C(=O)N1C in your reply.
Marked response: 7.96

Exam item: Annotate the molecule CC(=O)NCCCC[C@H]1C(=O)N[C@@H](Cc2c[nH]c3ccc(O)cc23)C(=O)N[C@@H](Cc2c[nH]c3ccccc23)C(=O)N[C@@H]([C@H](C)O)C(=O)N(C)[C@H](C(=O)N(C)[C@@H](Cc2ccc(F)cc2)C(=O)N[C@@H](CCCCNC(=O)CN2CCN(CC(=O)O)CCN(CC(=O)O)CCN(CC(=O)O)CC2)C(N)=O)CNC(=O)CCC[C@H](NC(C)=O)C(=O)N[C@@H](Cc2ccc(O)cc2)C(=O)N[C@@H](CO)C(=O)N(C)[C@@H](CCc2ccccc2)C(=O)N1C with its measured pIC50.
Marked response: 9.52
